target: JAK3 (Homo sapiens (Human)); experiment: IC50 against JAK3; type: biochemical
// reported IC50 for each item listed

IC50 in this record for C=CC(=O)N1CCN(C(=O)c2cc(Sc3cnc(Nc4ccccn4)s3)c(C)cc2C)CC1 : 10 to 100 nM

IC50 in this record for C=CC(=O)N1CCCN(C(=O)c2cc(Sc3cnc(NC(=O)c4cnsc4)s3)c(C)cc2OC)C[C@H]1CC : 1000 to 10000 nM

IC50 in this record for C=CC(=O)N1CCCN(C(=O)c2cc(Sc3cnc(NC(=O)N(C)C)s3)c(C)cc2OC)C[C@H]1C : 1000 to 10000 nM

----------
molecular target: JAK3 (Homo sapiens (Human), UniProt P52333); assay: IC50 against JAK3; format: biochemical
Sequence (P52333 whole entry, species assumed): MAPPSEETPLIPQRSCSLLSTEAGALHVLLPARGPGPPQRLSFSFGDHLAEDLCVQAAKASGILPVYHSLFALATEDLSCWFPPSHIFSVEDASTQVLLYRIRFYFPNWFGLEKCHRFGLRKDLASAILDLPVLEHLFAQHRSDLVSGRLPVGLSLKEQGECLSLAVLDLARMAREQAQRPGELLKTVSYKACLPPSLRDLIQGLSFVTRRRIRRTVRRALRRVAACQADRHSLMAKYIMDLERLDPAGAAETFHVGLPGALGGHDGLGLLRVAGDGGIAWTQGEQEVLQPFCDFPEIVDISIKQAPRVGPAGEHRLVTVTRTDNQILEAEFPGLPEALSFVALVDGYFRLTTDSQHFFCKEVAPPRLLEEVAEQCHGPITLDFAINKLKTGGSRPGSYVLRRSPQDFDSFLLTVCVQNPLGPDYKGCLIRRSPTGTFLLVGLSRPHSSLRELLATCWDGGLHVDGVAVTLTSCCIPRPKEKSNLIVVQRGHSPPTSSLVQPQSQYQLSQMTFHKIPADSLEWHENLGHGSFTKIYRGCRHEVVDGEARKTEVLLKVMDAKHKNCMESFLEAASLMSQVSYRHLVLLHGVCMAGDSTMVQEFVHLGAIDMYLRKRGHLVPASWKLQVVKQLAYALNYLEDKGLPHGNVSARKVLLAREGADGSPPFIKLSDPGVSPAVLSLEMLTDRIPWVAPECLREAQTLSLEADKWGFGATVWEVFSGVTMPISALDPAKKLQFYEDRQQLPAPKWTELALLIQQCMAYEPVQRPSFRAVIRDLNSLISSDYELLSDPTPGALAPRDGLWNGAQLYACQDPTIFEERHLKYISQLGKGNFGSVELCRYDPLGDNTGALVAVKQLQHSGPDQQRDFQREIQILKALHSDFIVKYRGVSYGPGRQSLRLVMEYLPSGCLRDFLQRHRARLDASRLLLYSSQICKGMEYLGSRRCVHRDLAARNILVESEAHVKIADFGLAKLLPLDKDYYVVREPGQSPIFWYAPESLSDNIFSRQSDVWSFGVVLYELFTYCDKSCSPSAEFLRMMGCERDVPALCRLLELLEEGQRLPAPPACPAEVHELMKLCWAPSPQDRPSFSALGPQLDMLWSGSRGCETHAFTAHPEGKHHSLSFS
// reported IC50 for each item listed

Answered examples (3):
C=CC(=O)N1CCN(C(=O)c2cc(Sc3cnc(NC(C)=O)s3)c(C)cc2OC)C[C@H]1C [Compound 11] | 1000 to 10000 nM
C=CC(=O)N1CCCN(C(=O)c2cc(Sc3cnc(NC(=O)C4CC4)s3)c(C)cc2C)CC1 [Compound 74] | 100 to 1000 nM
C=CC(=O)N1CCN(C(=O)c2cc(Sc3cnc(NC(=O)C4CC4)s3)c(C)cc2OC)C[C@@H]1C [Compound 22] | 100 to 1000 nM

Below: the item to evaluate.
IC50 in this record for C=CC(=O)N1CCN(C(=O)c2cc(Sc3cnc(NC(=O)C4CC4)s3)c(C)cc2OC)C[C@H]1CC [Compound 42] : 1000 to 10000 nM
